// each record: one item and its AC50 for Vasopressin V2 receptor (Homo sapiens, UniProt P30518)
ASSAY METRIC: AC50

• CCCc1cc(=O)[nH]c(=S)[nH]1 = > 10 µM
• COc1cc2[nH]c(C)c(CCN3CCN(c4ccccc4)CC3)c2cc1OC = > 30 µM
• C[N+]1(C)CCC(=C(c2ccccc2)c2ccccc2)CC1 = > 30 µM
• CC(C)N(CCCCOCC(=O)O)c1cnc(-c2ccccc2)c(-c2ccccc2)n1 = > 30 µM
• CN(Cc1cnc2nc(N)nc(N)c2n1)c1ccc(C(=O)N[C@@H](CCC(=O)O)C(=O)O)cc1 [METHOTREXATE] = > 30 µM
• COC(=O)C1=C(C)NC(C)=C(C(=O)OCCN2CCN(C(c3ccccc3)c3ccccc3)CC2)C1c1cccc([N+](=O)[O-])c1 (stereo not drawn) = > 30 µM
• CC(C)(O/N=C(\C(=O)N[C@@H]1C(=O)N2C(C(=O)[O-])=C(C[n+]3ccccc3)CS[C@H]12)c1csc(N)n1)C(=O)O = > 30 µM
• O=C(O)CCNC(=O)c1ccc(/N=N/c2ccc(O)c(C(=O)O)c2)cc1 [BALSALAZIDE] = 36.9 µM

----------
# TARGET DESC: Amine oxidase [flavin-containing] A (Homo sapiens); note: assay procedure not described here
# Sequence (P21397 whole entry): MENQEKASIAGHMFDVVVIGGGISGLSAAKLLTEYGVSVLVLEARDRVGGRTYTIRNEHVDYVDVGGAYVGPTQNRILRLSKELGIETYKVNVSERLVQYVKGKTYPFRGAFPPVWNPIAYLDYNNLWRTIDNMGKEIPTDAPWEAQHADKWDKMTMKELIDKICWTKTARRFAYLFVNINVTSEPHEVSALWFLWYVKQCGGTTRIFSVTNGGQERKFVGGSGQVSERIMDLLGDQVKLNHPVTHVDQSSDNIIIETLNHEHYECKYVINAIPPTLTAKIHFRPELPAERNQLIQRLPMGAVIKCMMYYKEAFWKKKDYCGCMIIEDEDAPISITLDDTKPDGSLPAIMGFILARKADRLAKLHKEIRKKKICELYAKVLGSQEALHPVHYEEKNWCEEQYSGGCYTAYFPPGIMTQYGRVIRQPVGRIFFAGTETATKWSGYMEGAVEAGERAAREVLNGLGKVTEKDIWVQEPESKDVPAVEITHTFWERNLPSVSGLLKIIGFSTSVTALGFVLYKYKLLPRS
# Assay type: functional
ASSAY METRIC: AC50

- O=C(O)COCCN1CCN(C(c2ccccc2)c2ccc(Cl)cc2)CC1 (stereo not given): > 10 µM
- CC(C)NC[C@H](O)COc1ccc(CC(N)=O)cc1: > 10 µM
- CCCc1cc(=O)[nH]c(=S)[nH]1: > 10 µM
- CCC1(c2ccc(N)cc2)CCC(=O)NC1=O (stereo not given) [AMINOGLUTETHIMIDE]: > 30 µM
- O=C(/C=C/c1cccc(S(=O)(=O)Nc2ccccc2)c1)NO: > 10 µM

----------
Let's go through some AC50 measurements on Sodium-dependent noradrenaline transporter (Homo sapiens) together.
Sequence (P23975 whole entry): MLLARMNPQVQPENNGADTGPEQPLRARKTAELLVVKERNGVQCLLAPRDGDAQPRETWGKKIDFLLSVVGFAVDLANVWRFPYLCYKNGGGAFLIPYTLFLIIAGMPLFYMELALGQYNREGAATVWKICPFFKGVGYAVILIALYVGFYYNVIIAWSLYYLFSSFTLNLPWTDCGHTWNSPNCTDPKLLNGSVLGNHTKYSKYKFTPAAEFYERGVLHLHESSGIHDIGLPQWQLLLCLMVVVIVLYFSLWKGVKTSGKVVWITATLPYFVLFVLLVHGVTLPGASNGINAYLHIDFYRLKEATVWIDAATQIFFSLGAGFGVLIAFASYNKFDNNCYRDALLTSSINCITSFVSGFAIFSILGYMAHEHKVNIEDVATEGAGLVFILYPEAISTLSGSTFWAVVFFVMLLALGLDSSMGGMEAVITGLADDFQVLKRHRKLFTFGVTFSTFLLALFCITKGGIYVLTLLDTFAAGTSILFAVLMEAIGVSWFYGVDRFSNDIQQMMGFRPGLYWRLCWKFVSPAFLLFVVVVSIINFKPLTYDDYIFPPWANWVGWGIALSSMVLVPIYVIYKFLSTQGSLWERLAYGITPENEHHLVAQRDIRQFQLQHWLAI
ASSAY METRIC: AC50

* Cc1ccnc2c1NC(=O)c1cccnc1N2C1CC1 | > 10 µM
* CCOC(=O)c1ccc(C#Cc2ccc3c(c2)C(C)(C)CCS3)nc1 | > 30 µM
* O=C1Cc2cc(CCN3CCN(c4nsc5ccccc45)CC3)c(Cl)cc2N1 | 0.89 µM
* O=C1c2cccc3c2[C@H](CCC3)CN1[C@@H]1CN2CCC1CC2 | > 30 µM
* CC[C@H](C)C(=O)O[C@H]1C[C@@H](C)C=C2C=C[C@H](C)[C@H](CC[C@@H]3C[C@@H](O)CC(=O)O3)[C@H]21 | > 10 µM
* COc1cc(C)c(/C=C/C(C)=C/C=C/C(C)=C/C(=O)O)c(C)c1C | > 10 µM
* O=C1Nc2ccc(Cl)cc2C(c2ccccc2Cl)=NC1O (centres undefined) | > 10 µM
* CC(=O)[C@H]1CC[C@H]2[C@@H]3C[C@H](C)C4=CC(=O)CC[C@]4(C)[C@H]3[C@@H](O)C[C@]12C | > 10 µM
* C[N+]12CCC(CC1)C(OC(=O)C(O)(c1ccccc1)c1ccccc1)C2 (centres undefined) | > 30 µM

----------
# TARGET DESC: Prostaglandin G/H synthase 1 (Rattus norvegicus, UniProt Q63921); note: assay procedure not described here
# Sequence (Q63921 whole entry): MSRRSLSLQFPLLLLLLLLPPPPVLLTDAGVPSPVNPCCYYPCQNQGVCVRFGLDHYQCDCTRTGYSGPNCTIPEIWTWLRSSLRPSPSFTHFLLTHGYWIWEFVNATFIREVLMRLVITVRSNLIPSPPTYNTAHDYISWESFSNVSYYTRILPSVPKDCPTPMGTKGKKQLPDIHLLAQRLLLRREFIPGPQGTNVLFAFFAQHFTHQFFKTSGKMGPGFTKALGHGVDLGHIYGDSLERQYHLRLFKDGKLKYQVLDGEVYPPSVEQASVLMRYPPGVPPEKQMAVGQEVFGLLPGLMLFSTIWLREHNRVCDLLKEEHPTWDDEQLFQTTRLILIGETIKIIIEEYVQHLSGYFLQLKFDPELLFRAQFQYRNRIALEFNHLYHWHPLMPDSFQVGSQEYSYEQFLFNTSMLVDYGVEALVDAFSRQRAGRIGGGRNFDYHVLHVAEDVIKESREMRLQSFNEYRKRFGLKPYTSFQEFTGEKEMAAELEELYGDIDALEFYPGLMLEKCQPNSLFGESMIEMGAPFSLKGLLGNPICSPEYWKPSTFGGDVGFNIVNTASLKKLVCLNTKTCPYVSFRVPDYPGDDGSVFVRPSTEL
# Format: functional
ASSAY METRIC: AC50

- COc1cc(C(=O)NS(=O)(=O)c2ccccc2C)ccc1Cc1cn(C)c2ccc(NC(=O)OC3CCCC3)cc12: 5.1 µM
- Cc1ccccc1-n1c(CF)nc2ccc(N)cc2c1=O: 27.9 µM
- O=C(O)Cc1ccccc1Oc1ccc(Cl)cc1Cl: > 30 µM
- CC(C(=O)O)c1ccc2c(c1)CC(=O)c1ccccc1S2 (centres undefined): > 30 µM
- Clc1ccc(CCC(Cn2ccnc2)Sc2c(Cl)cccc2Cl)cc1 (centres undefined): 14 µM
- COc1ccc(C2C(=O)c3ccccc3C2=O)cc1: 13 µM
- COc1cc(C(=O)NC2CCCNC2)cc(OC)c1OC (centres undefined) [TROXIPIDE]: > 10 µM
- O=C1OC(OC(=O)c2cccnc2Nc2cccc(C(F)(F)F)c2)c2ccccc21 (centres undefined) [TALNIFLUMATE]: > 30 µM
- Cc1ccccc1N1C(=O)c2cc(S(N)(=O)=O)c(Cl)cc2NC1C (centres undefined): > 10 µM

----------
# TARGET DESC: UniProtKB P25929
# Sequence (P25929 whole entry): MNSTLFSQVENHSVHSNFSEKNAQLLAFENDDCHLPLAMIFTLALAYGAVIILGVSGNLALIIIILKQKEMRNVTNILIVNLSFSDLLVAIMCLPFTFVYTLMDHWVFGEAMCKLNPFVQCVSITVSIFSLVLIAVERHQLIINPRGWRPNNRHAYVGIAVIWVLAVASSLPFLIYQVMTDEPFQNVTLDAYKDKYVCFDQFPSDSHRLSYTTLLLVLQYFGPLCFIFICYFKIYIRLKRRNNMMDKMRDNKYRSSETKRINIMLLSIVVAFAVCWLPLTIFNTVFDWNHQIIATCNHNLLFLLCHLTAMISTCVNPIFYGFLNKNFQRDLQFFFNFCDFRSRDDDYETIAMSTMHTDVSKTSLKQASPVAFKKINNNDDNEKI
Reported values of AC50 for individual entries
ASSAY METRIC: AC50

• CCN1CCCC1CNC(=O)c1cc(S(=O)(=O)CC)ccc1OC (stereo not given) [SULTOPRIDE] = > 30 µM
• CCCN1CCCC[C@H]1C(=O)Nc1c(C)cccc1C = > 30 µM
• C[C@]12CCC(=O)C[C@@H]1CC[C@@H]1[C@@H]2CC[C@]2(C)[C@@H](O)CC[C@@H]12 = > 30 µM
• O=C(O)c1ccc(NC(=O)[C@H](Cc2ccc(O)cc2)NC(=O)c2ccccc2)cc1 [BENTIROMIDE] = > 10 µM
• O=c1c(O)c(-c2ccc(O)c(O)c2)oc2cc(O)cc(O)c12 = > 30 µM
• CCc1cc2c(s1)-n1c(C)nnc1CN=C2c1ccccc1Cl = > 30 µM
• O=C1Cc2cc(CCN3CCN(c4nsc5ccccc45)CC3)c(Cl)cc2N1 = > 30 µM
• CC/C=C\C/C=C\C/C=C\C/C=C\C/C=C\CCCC(=O)OCC = > 30 µM
• O=C(CCCN1CCC(O)(c2ccc(Br)cc2)CC1)c1ccc(F)cc1 = > 30 µM
• NS(=O)(=O)c1cc2c(cc1Cl)N=C(CSCc1ccccc1)NS2(=O)=O [BENZTHIAZIDE] = > 10 µM
• O=C(c1cc(Cc2n[nH]c(=O)c3ccccc23)ccc1F)N1CCN(C(=O)C2CC2)CC1 = > 30 µM
• CCCN1CC(NS(=O)(=O)N(CC)CC)CC2Cc3c(O)cccc3CC21 (stereo not given) [QUINAGOLIDE] = > 30 µM
• CCC[C@@H]1C[C@@H](C(=O)N[C@@H]([C@H]2O[C@H](SC)[C@H](O)[C@@H](O)[C@H]2O)[C@@H](C)O)N(C)C1 = > 10 µM
• Cc1nnc(SCC2=C(C(=O)O)N3C(=O)[C@@H](NC(=O)Cn4cnnn4)[C@H]3SC2)s1 = > 30 µM
• C[N+](C)(C)CCOP(=O)([O-])OC[C@H](O)CO = > 30 µM
• Cc1ccccc1-n1c(CF)nc2ccc(N)cc2c1=O = > 30 µM
• CCCC(C)(COC(N)=O)COC(N)=O [MEPROBAMATE] = > 10 µM
• CCOC(=O)[C@@H](N)Cc1ccc(-c2cc(O[C@H](c3ccc(Cl)cc3-n3ccc(C)n3)C(F)(F)F)nc(N)n2)cc1 = > 30 µM
• CCOC(=O)c1c(CSc2ccccc2)n(C)c2cc(Br)c(O)c(CN(C)C)c12 = > 30 µM
• CCOC(=O)C1=C(C)NC(C)=C(C(=O)OCC)C1c1ccccc1/C=C/C(=O)OC(C)(C)C = > 30 µM
